B1: SASS6 (parent)
chain: QKELQDVGQSLRIKEQEVCKLQEQ

- Variants of: B1
- TEST: protein stability index of a GFP-peptide fusion (GPS, HEK-293T) (PSI 1-6); higher = more stable;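 note: lentivirally expressed fusions sorted by FACS into six bins by GFP to DsRed ratio, PSI derived from sequencing read proportions per bin multiplied by bin number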
- TEST PARAMETERS: c terminus: a fixed tail appended
METRIC: protein stability index

SEQ TEXT | MEASUREMENT
QKELQDVCQSLRIKEQEVCKLQEQ | 4.92
QKELQDVGQSLNIKEQEVCKLQEQ | 5.19
QKELQDVGQSLRIKEQEVCLLQEQ | 5.02
MKELQDVGQSLRIKEQEVCKLQEQ | 4.5
QKELQDVGQSLRIKEQEACKLQEQ | 4.16
QKELQDVGQSLRIKEDEVCKLQEQ | 5.43
QDELQDVGQSLRIKEQEVCKLQEQ | 5.26
